These data points were gathered from patent US20220010021A1.

molecular target: human FGFR1c + KLB receptor complex on HEK293 iLite FGF21 reporter cells (human, UniProt P11362 22-822; Q86Z14 1-1044); test: cell-based or functional assay
Sequence (P11362 22-822, chain 1 of 2): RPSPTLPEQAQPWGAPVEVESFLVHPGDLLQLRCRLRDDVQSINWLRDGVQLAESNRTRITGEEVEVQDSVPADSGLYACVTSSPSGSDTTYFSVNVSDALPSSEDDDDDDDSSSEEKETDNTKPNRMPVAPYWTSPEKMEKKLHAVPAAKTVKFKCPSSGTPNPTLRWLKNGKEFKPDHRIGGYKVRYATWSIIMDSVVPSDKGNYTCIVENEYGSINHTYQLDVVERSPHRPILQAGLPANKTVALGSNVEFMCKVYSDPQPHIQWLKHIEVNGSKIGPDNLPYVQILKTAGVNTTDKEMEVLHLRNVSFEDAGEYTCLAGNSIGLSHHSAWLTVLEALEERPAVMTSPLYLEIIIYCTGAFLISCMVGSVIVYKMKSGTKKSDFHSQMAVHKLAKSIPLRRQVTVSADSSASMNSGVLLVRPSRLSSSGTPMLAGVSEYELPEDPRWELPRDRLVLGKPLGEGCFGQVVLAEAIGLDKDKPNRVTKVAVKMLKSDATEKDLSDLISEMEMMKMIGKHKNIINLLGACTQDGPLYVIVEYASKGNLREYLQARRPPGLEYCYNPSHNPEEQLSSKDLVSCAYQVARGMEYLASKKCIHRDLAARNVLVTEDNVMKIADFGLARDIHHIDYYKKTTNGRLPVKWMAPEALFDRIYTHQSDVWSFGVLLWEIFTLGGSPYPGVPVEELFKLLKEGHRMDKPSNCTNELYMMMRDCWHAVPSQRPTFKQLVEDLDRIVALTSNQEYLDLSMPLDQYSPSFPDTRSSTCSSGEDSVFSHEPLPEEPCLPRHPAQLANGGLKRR
Sequence (Q86Z14 whole entry, chain 2 of 2): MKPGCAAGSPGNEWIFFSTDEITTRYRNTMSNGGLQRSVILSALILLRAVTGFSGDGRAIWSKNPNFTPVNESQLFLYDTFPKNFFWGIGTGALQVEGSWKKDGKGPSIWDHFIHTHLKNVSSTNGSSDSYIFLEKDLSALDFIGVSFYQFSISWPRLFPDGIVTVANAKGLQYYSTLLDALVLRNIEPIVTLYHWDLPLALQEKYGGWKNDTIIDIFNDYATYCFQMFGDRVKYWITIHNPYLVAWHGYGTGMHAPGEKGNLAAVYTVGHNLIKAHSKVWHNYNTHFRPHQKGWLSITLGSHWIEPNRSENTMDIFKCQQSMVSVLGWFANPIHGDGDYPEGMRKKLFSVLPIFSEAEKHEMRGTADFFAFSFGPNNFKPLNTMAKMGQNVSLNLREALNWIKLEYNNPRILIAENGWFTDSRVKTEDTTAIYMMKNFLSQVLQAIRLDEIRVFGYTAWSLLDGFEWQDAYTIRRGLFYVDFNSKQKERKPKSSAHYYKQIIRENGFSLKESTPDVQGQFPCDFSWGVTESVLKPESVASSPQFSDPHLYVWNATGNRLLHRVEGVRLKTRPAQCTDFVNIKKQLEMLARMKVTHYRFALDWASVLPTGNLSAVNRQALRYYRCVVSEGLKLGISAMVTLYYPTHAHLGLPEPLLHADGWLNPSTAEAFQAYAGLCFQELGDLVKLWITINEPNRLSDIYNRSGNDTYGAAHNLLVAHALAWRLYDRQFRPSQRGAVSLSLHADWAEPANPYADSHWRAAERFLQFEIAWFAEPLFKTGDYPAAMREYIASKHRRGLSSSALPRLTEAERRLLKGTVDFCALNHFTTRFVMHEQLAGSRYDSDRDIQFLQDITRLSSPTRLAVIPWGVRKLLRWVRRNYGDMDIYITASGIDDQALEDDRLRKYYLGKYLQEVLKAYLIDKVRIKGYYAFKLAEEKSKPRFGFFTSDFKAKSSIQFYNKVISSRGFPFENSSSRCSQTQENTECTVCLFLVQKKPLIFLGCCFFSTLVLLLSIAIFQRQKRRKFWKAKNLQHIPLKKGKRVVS
Please use Y for EC50 under 1 nM and N for everything else, ties included.

Before answering, review these 5 worked examples.
* Ab0300 (antibody, IgG4, V domains shown) VH: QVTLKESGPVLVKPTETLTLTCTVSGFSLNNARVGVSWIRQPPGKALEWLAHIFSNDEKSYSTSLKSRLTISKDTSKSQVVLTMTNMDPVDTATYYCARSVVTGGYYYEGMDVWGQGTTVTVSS VL: SYVLTQPPSVSVAPGQTARITCGGNNIGSESVHWYQQKPGQAPVLVVYYDSDRPSGIPERFSGSNSGNTATLTISRVEAGDEADYYCQVWTGNSDHVVFGGGTKLTVLG | N
* Ab0423 (antibody, IgG4, V domains shown) VH: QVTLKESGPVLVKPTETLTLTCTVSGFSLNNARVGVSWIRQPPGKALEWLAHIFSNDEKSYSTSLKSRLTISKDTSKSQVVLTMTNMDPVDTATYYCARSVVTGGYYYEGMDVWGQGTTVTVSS VL: SYVLTQPPSVSVAPGQTARITCGGSNIGSESVHWYQQKPGQAPVLVVYSSSDRPSGIPERFSGSNSGNTATLTISRVEAGDEADYYCQVWEGASDHVVFGGGTKLTVLG | Y
* Ab0298 (antibody, IgG4, V domains shown, IgG4 PE) VH: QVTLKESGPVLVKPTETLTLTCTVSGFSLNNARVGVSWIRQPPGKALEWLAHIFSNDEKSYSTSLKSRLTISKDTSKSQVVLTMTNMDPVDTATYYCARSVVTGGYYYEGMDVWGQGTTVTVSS VL: SYVLTQPPSVSVAPGQTARITCGGSNIGSESVHWYQQKPGQAPVLVVYYESDRPSGIPERFSGSNSGNTATLTISRVEAGDEADYYCQVWDGNSDHVVFGGGTKLTVLG | Y
* Ab0397 (antibody, IgG4, V domains shown) VH: QVTLKESGPVLVKPTETLTLTCTVSGFSLNNARVGVSWIRQPPGKALEWLAHIWSNDEKSYSTSLKSRLTISKDTSKSQVVLTMTNMDPVDTATYYCARSVVTGGYYYEGMDVWGQGTTVTVSS VL: CYVLTQPPSVSVAPGQTARITCGGNNIGSESVHWYQQKPGQAPVLVVDDSDRPSGIPERFSGSNSGNTATLTISRVEAGDEADYYCQVFDGNCAHVVFGGGTKLTVLG | N
* Ab0337 (antibody, IgG4, V domains shown, IgG4 PE) VH: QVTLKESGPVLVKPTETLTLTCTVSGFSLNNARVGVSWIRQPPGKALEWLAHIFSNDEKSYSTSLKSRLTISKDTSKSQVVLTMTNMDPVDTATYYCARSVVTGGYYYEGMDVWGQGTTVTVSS VL: SYVLTQPPSVSVAPGQTARITCGGSNIGSESVHWYQQKPGQAPVLVVYSHSDRPSGIPERFSGSNSGNTATLTISRVEAGDEADYYCQVWEGESDHVVFGGGTKLTVLG | Y

Problem: Hello, is EC50 of the following binder strictly smaller than 1 nM? Ab0305 (antibody, IgG4, V domains shown) VH: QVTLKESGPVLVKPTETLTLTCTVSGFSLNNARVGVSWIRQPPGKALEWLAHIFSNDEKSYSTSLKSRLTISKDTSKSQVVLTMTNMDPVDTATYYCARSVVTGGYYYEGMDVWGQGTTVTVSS VL: SYVLTQPPSVSVAPGQTARITCGGSNIGSESVHWYQQKPGQAPVLVVYYESDRPSGIPERFSGSNSGNTATLTISRVEAGDEADYYCQVWTGNSDHVVFGGGTKLTVLG
Result: N

Problem: Another binder to look at: Ab0373 (antibody, IgG4, V domains shown) VH: QVTLKESGPVLVKPTETLTLTCTVSGFSLNNARVGVSWIRQPPGKALEWLAWIFSNDEKSYSTSLKSRLTISKDTSKSQVVLTMTNMDPVDTATYYCARSVVTGGYYYEGMDVWGQGTTVTVSS VL: SYVLTQPPSVSVAPGQTARITCGGNNIGSESVHWYQQKPGQAPVLVVDDSDRPSGIPERFSGSNSGNTATLTISRVEAGDEADYYCQVHDGNCECVVFGGGTKLTVLG
Result: N

Problem: One more binder: Ab0361 (antibody, IgG4, V domains shown, IgG4 PE) VH: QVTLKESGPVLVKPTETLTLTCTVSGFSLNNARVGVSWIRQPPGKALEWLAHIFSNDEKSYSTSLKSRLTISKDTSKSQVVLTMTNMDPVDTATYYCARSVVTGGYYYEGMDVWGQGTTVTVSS VL: SYVLTQPPSVSVAPGQTARITCGGSNIGSESVHWYQQKPGQAPVLVVYESSDRPSGIPERFSGSNSGNTATLTISRVEAGDEADYYCQVWEGSSDHVVFGGGTKLTVLG
Result: Y

Problem: Another binder to look at: Ab0320 (antibody, IgG4, V domains shown) VH: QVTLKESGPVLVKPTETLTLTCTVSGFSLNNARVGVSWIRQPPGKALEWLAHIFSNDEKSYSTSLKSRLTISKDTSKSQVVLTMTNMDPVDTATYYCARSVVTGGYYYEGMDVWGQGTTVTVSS VL: SYVLTQPPSVSVAPGQTARITCGGSNIGSESVHWYQQKPGQAPVLVVYYESDRPSGIPERFSGSNSGNTATLTISRVEAGDEADYYCQVWTGESDHVVFGGGTKLTVLG
Result: N

Problem: Repeat for the following binder: Ab0341 (antibody, IgG4, V domains shown) VH: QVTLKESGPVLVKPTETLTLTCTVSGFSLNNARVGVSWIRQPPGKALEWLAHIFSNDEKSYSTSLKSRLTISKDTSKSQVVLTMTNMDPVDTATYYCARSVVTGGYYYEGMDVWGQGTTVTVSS VL: SYVLTQPPSVSVAPGQTARITCGGSNIGSESVHWYQQKPGQAPVLVVYAYSDRPSGIPERFSGSNSGNTATLTISRVEAGDEADYYCQVWAGSSDHVVFGGGTKLTVLG
Result: N
